Target: T1, RsmE (Pseudomonas fluorescens CHA0, UniProt P0DPC3 1-64)
T1 sequence: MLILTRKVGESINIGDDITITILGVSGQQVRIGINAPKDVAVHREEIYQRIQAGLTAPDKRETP
Test: ITC; first RNA on dimer, two-site fit; ITC: 300 mM NaCl, 50 mM potassium phosphate pH 8.0, 298 K; NMR: 30 mM NaCl, 50 mM potassium phosphate pH 7.2, 313 K
Conditions: protein: recombinant; tags: C-terminal His tag; chain copies: 2; hairpin
quantity kind: pKd
Please report pKd as the negative decimal logarithm of the molar concentration, giving only the number.

Fill in: pKd of GGGCCAUCAAGGACGAUGGUCC (structured_RNA) [RsmZ SL2] is ___
7.80
